Hey, just so you know, these numbers are from PubChem BioAssay (NCI).

system: UACC-62 melanoma; test: NCI-60 one-dose screen, 48 h (100 = growth as untreated, 0 = no growth, -100 = all killed); conditions: 10 µM unless noted
The panel holds about 83,000 compounds, 20% with a hit somewhere; the sample as a whole holds those more often. Calls of active or inactive are those of the source. The calls were made as follows: active = growth percent below 10; inactive = the rest.
The following compounds are shown together with reported growth values.
outcomeMeasure: growth

>  <chemSmiles>
Cn1cc(-c2nc(-c3c[nH]c4ncc(F)cc34)cs2)c2cccnc21

>  <outcomeMeasure>
growth

>  <testValue>
89.1% (inactive)

$$$$
>  <chemSmiles>
CC[N+](CC)(CCOCCOCC[N+](CC)(CC)Cc1ccc([N+](=O)[O-])cc1)Cc1ccc([N+](=O)[O-])cc1

>  <outcomeMeasure>
growth

>  <testValue>
88.4% (inactive)

$$$$
>  <chemSmiles>
C=CCCCCCCCCC(=O)[O][Sn]([CH2]CCC)([CH2]CCC)[CH2]CCC

>  <outcomeMeasure>
growth

>  <testValue>
-90.4% (active)

$$$$
>  <chemSmiles>
O=Cc1c[nH]c2ccc(NC(=O)OCc3ccccc3)cc12

>  <outcomeMeasure>
growth

>  <testValue>
90.4% (inactive)

$$$$
>  <chemSmiles>
COc1ccc(-c2oc3cc(O)c(OC)c(O)c3c(=O)c2OC)cc1O

>  <outcomeMeasure>
growth

>  <testValue>
36% (inactive)

$$$$

###

system: HS 578T breast; assay: NCI-60 one-dose screen, 48 h; conditions: 10 µM unless noted
This is part of a sample that, as a whole, favours compounds with a hit. Of some 83,000 tested, about 20% had one in any assay. The source made the active and inactive calls. How the source made its calls: active means growth percent below 10; inactive means the rest.
Classes used: true (1) for active, false (0) for inactive

>  <compound>
Clc1ccccc1[C@@H]1C[C@@H]2Cc3cc(Br)c4ccccc4c3N1O2

>  <categoryLabel>
false (0)

$$$$
>  <compound>
O=C(C(Br)Br)C(Br)C(Br)c1ccccc1 (stereo unspecified)

>  <categoryLabel>
false (0)

$$$$
>  <compound>
CC(c1cc(Cl)ccc1O)c1cc(Cl)ccc1O

>  <categoryLabel>
false (0)

$$$$
>  <compound>
Cc1cc(C(C)(C)c2cc(C)c(O)c(CN(C)C)c2)cc(CN(C)C)c1O

>  <categoryLabel>
false (0)

$$$$
>  <compound>
COc1ccc(-c2cc(Cc3cccs3)c(=O)n(Cn3ccc4ccccc43)n2)cc1

>  <categoryLabel>
false (0)

$$$$
>  <compound>
COc1ccc(C2CC(c3cccc(Nc4ccnc5cc(Cl)ccc45)c3)=NN2C=O)cc1 (stereo unspecified)

>  <categoryLabel>
true (1)

$$$$
>  <compound>
O=C(N1CCC(CN=c2cc3n(-c4ccc(Cl)cc4)c4ccccc4nc-3cc2Nc2ccc(Cl)cc2)CC1)N1CC1

>  <categoryLabel>
true (1)

$$$$
>  <compound>
O=C(Nc1ccc(C2=NCCCN2)cc1)Nc1ccc(C2=NCCCN2)cc1

>  <categoryLabel>
false (0)

$$$$
>  <compound>
COc1ccc(-c2csc(NC(=O)c3cc(O)c(O)c(O)c3)n2)cc1

>  <categoryLabel>
false (0)

$$$$
>  <compound>
CCC1=C(c2ccc(OC)cc2)C(C)(C)Oc2c1ccc(O)c2CN1CCCC1

>  <categoryLabel>
false (0)

$$$$
>  <compound>
CCC(CCC(C)C1CCC2C3CC=C4CC(O)CCC4(C)C3CCC12C)C(C)C (stereo unspecified) (tested in a mixture with another compound)

>  <categoryLabel>
false (0)

$$$$
>  <compound>
CCSc1nnc2n(Cc3ccccc3)c(=O)c3c(C)c(C(N)=O)sc3n12

>  <categoryLabel>
false (0)

$$$$
>  <compound>
Cc1cc(C(C)(C)C)cc(C)c1CC1=NCCN1

>  <categoryLabel>
false (0)

$$$$
>  <compound>
Cc1c(C(N)=O)sc2nc(SCC(=O)Nc3ccc(Cl)cc3)n(-c3ccccc3)c(=O)c12

>  <categoryLabel>
false (0)

$$$$
>  <compound>
COc1cc(/C=C/C(=O)c2c(-c3ccc(Cl)cc3)nc3sc(C)nn23)cc(OC)c1OC

>  <categoryLabel>
false (0)

$$$$
>  <compound>
Cc1ccc(C(=O)Nc2ccc(Cl)cc2C(=O)NCc2ccccc2)cc1

>  <categoryLabel>
false (0)

$$$$
>  <compound>
O=C1NCC(Nc2ccc(Br)cc2Cl)C(=O)N1 (stereo unspecified)

>  <categoryLabel>
false (0)

$$$$
>  <compound>
N=C(N)/N=C(\CCc1nc2ccccc2[nH]1)c1nc2ccccc2[nH]1

>  <categoryLabel>
false (0)

$$$$
>  <compound>
COc1c(C)c2c(c(O)c1C/C=C(\C)CCC(=O)OCCN1CCOCC1)C(=O)OC2

>  <categoryLabel>
false (0)

$$$$
>  <compound>
COC(=O)CCC1=C(C)C(C)=N/C1=C\c1[nH]c(-c2ccc[nH]2)cc1OC

>  <categoryLabel>
true (1)

$$$$
>  <compound>
COc1ccc(-c2cc(C(=O)Nc3nc4cc(C)c(C)cc4s3)nc3cc(-c4ccccc4)nn23)cc1OC

>  <categoryLabel>
false (0)

$$$$
>  <compound>
CCN(CC)CCCNCCCNc1cc(OC)cc2cccnc12

>  <categoryLabel>
false (0)

$$$$
>  <compound>
Cc1nn(-c2ccc(Cl)cc2)c2nc3c(nc12)C(=O)C(=O)c1ccccc1-3

>  <categoryLabel>
false (0)

$$$$
>  <compound>
COC(=O)[C@]1(C(C)C)N[C@H](c2cn(-c3ccccc3)nc2-c2ccccc2)[C@@H]2C(=O)N(c3ccc(Cl)cc3)C(=O)[C@@H]21

>  <categoryLabel>
false (0)

$$$$
>  <compound>
N#Cc1c(N2CCOCC2)nc2sc3cc(Cl)ccc3n2c1=N

>  <categoryLabel>
false (0)

$$$$
>  <compound>
O=C(O)c1ccc(NC(=O)c2ccc(Nc3ccnc(C(F)(F)F)c3)cc2)cc1

>  <categoryLabel>
false (0)

$$$$
>  <compound>
COc1cc(/C=C/C(=O)c2ccc(F)cc2)ccc1OCCCCCOc1cc2c(cc1OC)C(=O)N1CCCC1C=N2 (stereo unspecified)

>  <categoryLabel>
true (1)

$$$$
>  <compound>
Cc1ccc2c(c1)C(=O)/C(=C/c1ncc([N+](=O)[O-])n1C)O2

>  <categoryLabel>
true (1)

$$$$
>  <compound>
COC(=O)c1ccc2c(c1)nc(-c1ccc(O)c(OC)c1)n2-c1cc(C(C)(C)C)[nH]n1

>  <categoryLabel>
false (0)

$$$$
>  <compound>
CCN1C(=O)c2ccc3c4c(ccc(c24)C1=O)C(=O)N(CCCNCc1ccccc1OC)C3=O

>  <categoryLabel>
true (1)

$$$$
>  <compound>
COc1cccc2c1O/C(=C\c1c([N+](=O)[O-])ncn1C)C2=O

>  <categoryLabel>
false (0)

$$$$
>  <compound>
COc1ccc(C2=NN(C(=O)c3cc(OC)c(OC)c(OC)c3)C(c3ccc(C#N)cc3)C2)cc1OC (stereo unspecified)

>  <categoryLabel>
true (1)

$$$$
>  <compound>
COc1cc(/C=C2\CCC/C(=C\c3ccc(OCC4CO4)c(OC)c3)C2=O)ccc1OCC1CO1 (stereo unspecified)

>  <categoryLabel>
false (0)

$$$$
>  <compound>
CCC(CC)NCCCCCNc1cc(OC)cc2cccnc12

>  <categoryLabel>
false (0)

$$$$
>  <compound>
Cc1ccc([N+](=O)[O-])cc1NC(=O)Nc1cccc(F)c1

>  <categoryLabel>
false (0)

$$$$
>  <compound>
COc1ccc(-c2cn(-c3ccccc3)c(-c3ccccc3)n2)cc1OC

>  <categoryLabel>
false (0)

$$$$
>  <compound>
Nc1ccc(S(=O)(=O)Nc2ncccn2)cc1

>  <categoryLabel>
false (0)

$$$$
>  <compound>
O=C(CSc1nnc(Nc2ccccc2)s1)NCCc1ccc(F)cc1

>  <categoryLabel>
false (0)

$$$$
>  <compound>
COc1ccc(COC(C)=O)cc1

>  <categoryLabel>
false (0)

$$$$
>  <compound>
Cn1c(=O)c2c(nc(Br)n2CCC(=O)Nc2ccc(F)cc2)n(C)c1=O

>  <categoryLabel>
false (0)

$$$$
>  <compound>
COc1cc(C2CC(=O)Nc3c2cc(Br)c2ccccc32)cc(Br)c1OC (stereo unspecified)

>  <categoryLabel>
false (0)

$$$$

###

system: SNB-75 CNS; experiment: NCI-60 one-dose screen, 48 h (100 = growth as untreated, 0 = no growth, -100 = all killed); details: 10 µM unless noted
About 83,000 compounds went through this panel and 20% of them were active in at least one assay; those are over-represented in the sample as a whole.
Response field label: string, one of y (growth strictly below 80%) or n.

>  <compound>
c1ccc(Nc2nnc(-c3cc(-c4cccnc4)n(-c4ccccc4)n3)s2)cc1

>  <categoryLabel>
n

$$$$
>  <compound>
O=C(C(=O)N1CCCCC1)c1ccc(OC2OC(CO)C(O)C(O)C2O)cc1 (centres undefined)

>  <categoryLabel>
n

$$$$
>  <compound>
CN(C)c1cccc2c(S(=O)(=O)N[C@H]3CC[C@H]4[C@@H]5CCc6cc(O)ccc6[C@H]5CC[C@]34C)cccc12

>  <categoryLabel>
y

$$$$
>  <compound>
Cc1nn(-c2ccc(Cl)cc2)c2nc3c(nc12)C(=O)c1ccccc1-3

>  <categoryLabel>
n

$$$$
>  <compound>
O=C(Nc1nc2ccccc2s1)c1cc(-c2ccc(F)cc2)n2nc(-c3ccccc3)cc2n1

>  <categoryLabel>
y

$$$$
>  <compound>
NNC(=O)C1CC2c3ccccc3C1c1ccccc12 (centres undefined)

>  <categoryLabel>
n

$$$$
>  <compound>
N#Cc1cnc2cc(OC[C@H](O)CO)c(NC(=O)CC3CSSC3)cc2c1Nc1ccc(OCc2cccc(F)c2)c(Cl)c1

>  <categoryLabel>
y

$$$$
>  <compound>
N=C(N)/N=C(\CCc1nc2ccccc2[nH]1)c1nc2ccccc2[nH]1

>  <categoryLabel>
n

$$$$
>  <compound>
CCC(CCC(C)C1CCC2C3CC=C4CC(O)CCC4(C)C3CCC12C)C(C)C (centres undefined) (tested in a mixture with another compound)

>  <categoryLabel>
n

$$$$
